Test: Luminescence / photophysical properties
Assay type: physicochemical
Reported λmax (absorption) is given for each of the following compounds.
observationType: λmax (absorption) (nm)

| compound | observationType | measureUnit | result |
| --- | --- | --- | --- |
| CC(C)(C)c1cc(C2=NN=Cc3ccccc3[O][Sn]([c]3cc(C(C)(C)C)c(O)c(C(C)(C)C)c3)([c]3cc(C(C)(C)C)c(O)c(C(C)(C)C)c3)[O]2)cc(C(C)(C)C)c1O [Compound 7, (2,6-Di-tert-butylphenol)2SnL] | λmax (absorption) | nm | 402 |
| CCC[CH2][Sn]1([CH2]CCC)[O]C(c2cc(C(C)(C)C)c(O)c(C(C)(C)C)c2)=NN=Cc2ccccc2[O]1 [Compound 4, Bu2SnL] | λmax (absorption) | nm | 409 |
| CC(C)(C)c1cc(C2=NN=Cc3ccccc3[O][Sn]([c]3ccccc3)([c]3ccccc3)[O]2)cc(C(C)(C)C)c1O [Compound 6, Ph2SnL] | λmax (absorption) | nm | 393 |
| CC(C)(C)c1cc(C2=NN=Cc3ccccc3[O][Sn]([CH3])([CH3])[O]2)cc(C(C)(C)C)c1O [Compound 2, Me2SnL] | λmax (absorption) | nm | 403 |
| C[CH2][Sn]1([CH2]C)[O]C(c2cc(C(C)(C)C)c(O)c(C(C)(C)C)c2)=NN=Cc2ccccc2[O]1 [Compound 3, Et2SnL] | λmax (absorption) | nm | 410 |
| CC(C)(C)c1cc(C2=NN=Cc3ccccc3[O][Sn]([C](C)(C)C)([C](C)(C)C)[O]2)cc(C(C)(C)C)c1O [Compound 5, Bu^t2SnL] | λmax (absorption) | nm | 412 |

---

Reported Luminosity (λmax) is given for each of the following compounds.
Assay: Luminescence / photophysical properties
Assay type: physicochemical
Details: at λmax

| compound | Luminosity (λmax) |
| --- | --- |
| C[CH2][Sn]1([CH2]C)[O]C(c2cc(C(C)(C)C)c(O)c(C(C)(C)C)c2)=NN=Cc2ccccc2[O]1 [Compound 3, Et2SnL] | 658,940, (410) M^−1·cm^−1 |
| CC(C)(C)c1cc(C2=NN=Cc3ccccc3[O][Sn]([c]3cc(C(C)(C)C)c(O)c(C(C)(C)C)c3)([c]3cc(C(C)(C)C)c(O)c(C(C)(C)C)c3)[O]2)cc(C(C)(C)C)c1O [Compound 7, (2,6-Di-tert-butylphenol)2SnL] | 557,340, (402) M^−1·cm^−1 |
| CC(C)(C)c1cc(C2=NN=Cc3ccccc3[O][Sn]([CH3])([CH3])[O]2)cc(C(C)(C)C)c1O [Compound 2, Me2SnL] | 771,130, (403) M^−1·cm^−1 |
| CCC[CH2][Sn]1([CH2]CCC)[O]C(c2cc(C(C)(C)C)c(O)c(C(C)(C)C)c2)=NN=Cc2ccccc2[O]1 [Compound 4, Bu2SnL] | 398,650, (409) M^−1·cm^−1 |

---

System: A549 (human lung adenocarcinoma)
Assay: MTT-test A549
Type: cell-based
observationType: IC50 (µM)

| smiles | measurementTarget | result |
| --- | --- | --- |
| CC(C)(C)c1cc(C2=NN=Cc3ccccc3[O][Sn]([c]3cc(C(C)(C)C)c(O)c(C(C)(C)C)c3)([c]3cc(C(C)(C)C)c(O)c(C(C)(C)C)c3)[O]2)cc(C(C)(C)C)c1O | A549 (human lung adenocarcinoma) | 31.9 |
| CC(C)(C)c1cc(C2=NN=Cc3ccccc3[O][Sn]([c]3ccccc3)([c]3ccccc3)[O]2)cc(C(C)(C)C)c1O | A549 (human lung adenocarcinoma) | 20.2 |
| CC(C)(C)c1cc(C2=NN=Cc3ccccc3[O][Sn]([CH3])([CH3])[O]2)cc(C(C)(C)C)c1O | A549 (human lung adenocarcinoma) | 2.2 |
